target.or.system: BRD4(49-170) bromodomain (Homo sapiens (Human))
test: BRD4 AlphaScreen Assay
experimental.parameters: binding to biotin-H4(1-21) Ac-K5/8/12/16 peptide
readout.kind: IC50

molecule: CC(=O)N1CCn2c(N3CCOCC3)nc(-c3ccc4c(c3)c(-c3cnn(C)c3)nn4C)c2C1
target.or.system: BRD4(49-170) bromodomain (Homo sapiens (Human))
reported.result: > 25 µM
//
molecule: CNC(=O)N1CCn2c(C3CCOC3)nc(-c3ccc4c(c3)c(-c3cnn(C)c3)nn4C)c2C1 (centres unmarked)
target.or.system: BRD4(49-170) bromodomain (Homo sapiens (Human))
reported.result: 8.21 µM
//
molecule: CNC(=O)N1CCn2c(C3CCNCC3)nc(-c3ccc4c(c3)c(-c3cnn(C)c3)nn4C)c2C1
target.or.system: BRD4(49-170) bromodomain (Homo sapiens (Human))
reported.result: > 10 µM
//
molecule: CNC(=O)N1CCn2c(C3CCOCC3)nc(-c3c(F)ccc4cc(-c5cn(C)nc5C)ncc34)c2C1
target.or.system: BRD4(49-170) bromodomain (Homo sapiens (Human))
reported.result: > 25 µM
//
molecule: CNC(=O)N1CCn2c(C3CC(F)(F)C3)nc(-c3cccc4nc(-c5cnn(C)c5)c(C(F)(F)F)cc34)c2C1
target.or.system: BRD4(49-170) bromodomain (Homo sapiens (Human))
reported.result: 25 µM
//
molecule: CNC(=O)N1CCn2c(C3CCOCC3)nc(-c3c(F)ccc4cc(-c5ccn(C)n5)ncc34)c2C1
target.or.system: BRD4(49-170) bromodomain (Homo sapiens (Human))
reported.result: > 25 µM
//
molecule: CNC(=O)N1Cc2c(-c3cccc4cc(-c5cnn(C)c5)ncc34)nc(C3CC3)n2C(C)C1 (centres unmarked)
target.or.system: BRD4(49-170) bromodomain (Homo sapiens (Human))
reported.result: 17.1 µM
//
molecule: CNC(=O)N1CCn2c(C3CC3)nc(-c3cccc4cc(C5CCOCC5)ncc34)c2C1
target.or.system: BRD4(49-170) bromodomain (Homo sapiens (Human))
reported.result: > 25 µM

---

target.or.system: GST-CBP(1081-1197) bromodomain (Homo sapiens (Human), UniProt Q92793)
Sequence (Q92793 1081-1197): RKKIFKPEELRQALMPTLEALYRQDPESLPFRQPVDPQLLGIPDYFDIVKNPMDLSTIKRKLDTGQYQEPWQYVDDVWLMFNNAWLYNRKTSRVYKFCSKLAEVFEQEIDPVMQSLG
test: CBP AlphaScreen Assay
experimental.parameters: binding to biotin-H4(1-21) Ac-K5/8/12/16 peptide

compound: CC(=O)N1CCn2c(C3CC3)nc(-c3ccc4c(c3)c(-c3cnn(C)c3)nn4C)c2C1 [Example 1]
target.or.system: GST-CBP(1081-1197) bromodomain (Homo sapiens (Human), UniProt Q92793)
IC50 / nM: 47
--
compound: CNC(=O)N1CCn2c(C3CC3)nc(-c3cccc4nc(-c5cn(C)nc5C)c(C(F)(F)F)cc34)c2C1 [Example 101]
target.or.system: GST-CBP(1081-1197) bromodomain (Homo sapiens (Human), UniProt Q92793)
IC50 / nM: 19
--
compound: CNC(=O)N1CCn2c(C3CC3)nc(-c3c(F)ccc4cc(-c5cnc(C)s5)ncc34)c2C1 [Example 22]
target.or.system: GST-CBP(1081-1197) bromodomain (Homo sapiens (Human), UniProt Q92793)
IC50 / nM: 3
--
compound: CNC(=O)N1CCn2c(C3CC(F)(F)C3)nc(-c3cccc4cc(-c5cnc(C)s5)ncc34)c2C1 [Example 96]
target.or.system: GST-CBP(1081-1197) bromodomain (Homo sapiens (Human), UniProt Q92793)
IC50 / nM: 2
--
compound: CNC(=O)N1CCn2c(C3CC(F)(F)C3)nc(-c3cccc4nc(-c5cnn(C)c5)c(C#N)cc34)c2C1 [Example 67]
target.or.system: GST-CBP(1081-1197) bromodomain (Homo sapiens (Human), UniProt Q92793)
IC50 / nM: 36
--
compound: CNC(=O)N1CCn2c(C3CCN(C)CC3)nc(-c3ccc4c(c3)c(-c3cnn(C)c3)nn4C)c2C1 [Example 56]
target.or.system: GST-CBP(1081-1197) bromodomain (Homo sapiens (Human), UniProt Q92793)
IC50 / nM: 22
--
compound: CNC(=O)N1CCn2c(C3CCC(F)(F)CC3)nc(-c3cccc4nc(-c5cnn(C)c5)c(C#N)cc34)c2C1 [Example 82]
target.or.system: GST-CBP(1081-1197) bromodomain (Homo sapiens (Human), UniProt Q92793)
IC50 / nM: 3
--
compound: CNC(=O)N1CCn2c(C3CCN(C(C)=O)CC3)nc(-c3ccc4c(c3)c(-c3cnn(C)c3)nn4C)c2C1 [Example 55]
target.or.system: GST-CBP(1081-1197) bromodomain (Homo sapiens (Human), UniProt Q92793)
IC50 / nM: 18
--
compound: CNC(=O)N1CCn2c(C3CCOCC3)nc(-c3cccc4cc(C5CCOCC5)ncc34)c2C1 [Example 68]
target.or.system: GST-CBP(1081-1197) bromodomain (Homo sapiens (Human), UniProt Q92793)
IC50 / nM: 16
--
compound: CC(=O)N1CCn2c(C3CC3)nc(N3CCCc4cc(-c5cnn(C6CC6)c5)ccc43)c2C1 [Example 108]
target.or.system: GST-CBP(1081-1197) bromodomain (Homo sapiens (Human), UniProt Q92793)
IC50 / nM: 148
--
compound: CNC(=O)N1CCn2c(C3CC3)nc(N3CCCc4cc(-c5cnn(C)c5)c(C(F)F)cc43)c2C1 [Example 3]
target.or.system: GST-CBP(1081-1197) bromodomain (Homo sapiens (Human), UniProt Q92793)
IC50 / nM: 5
--
compound: CC(=O)N1CCn2c(C3CC3)nc(-c3cnc(N)c(OC(F)(F)F)c3)c2C1 [Example 41]
target.or.system: GST-CBP(1081-1197) bromodomain (Homo sapiens (Human), UniProt Q92793)
IC50 / nM: 4490
--
compound: CNC(=O)N1CCn2c(C3CCOCC3)nc(-c3cccc4cc(-c5cn(C)nc5C)ncc34)c2C1 [Example 70]
target.or.system: GST-CBP(1081-1197) bromodomain (Homo sapiens (Human), UniProt Q92793)
IC50 / nM: 12
--
compound: CNC(=O)N1CCn2c(C3CC(F)(F)C3)nc(-c3cccc4cc(-c5cn(C)nc5C)ncc34)c2C1 [Example 71]
target.or.system: GST-CBP(1081-1197) bromodomain (Homo sapiens (Human), UniProt Q92793)
IC50 / nM: 38
--
compound: CC(=O)N1CCn2c(C3CCOC3)nc(-c3ccc4c(c3)c(-c3cnn(C)c3)nn4C)c2C1 (stereo not drawn) [Example 45]
target.or.system: GST-CBP(1081-1197) bromodomain (Homo sapiens (Human), UniProt Q92793)
IC50 / nM: 124
--
compound: CNC(=O)N1CCn2c(C3CC3)nc(-c3ccnc4cc(-c5cnn(C)c5)c(OC(F)(F)F)cc34)c2C1 [Example 2]
target.or.system: GST-CBP(1081-1197) bromodomain (Homo sapiens (Human), UniProt Q92793)
IC50 / nM: 3
--
compound: CC(=O)N1CCn2c(C3CC3)nc(N3CCCc4cc(-c5ccncc5)ccc43)c2C1 [Example 114]
target.or.system: GST-CBP(1081-1197) bromodomain (Homo sapiens (Human), UniProt Q92793)
IC50 / nM: 615
--
compound: CNC(=O)N1CCn2c(C3CC3)nc(-c3cccc4nc(-c5cnn(C)c5)c(C(F)(F)F)cc34)c2C1 [Example 62]
target.or.system: GST-CBP(1081-1197) bromodomain (Homo sapiens (Human), UniProt Q92793)
IC50 / nM: 5
--
compound: CNC(=O)N1CCn2c(C3CC(F)(F)C3)nc(-c3cccc4cc(-c5ccn(C)n5)ncc34)c2C1 [Example 79]
target.or.system: GST-CBP(1081-1197) bromodomain (Homo sapiens (Human), UniProt Q92793)
IC50 / nM: 6
--
compound: CNC(=O)N1CCn2c(C3CC(F)(F)C3)nc(-c3cccc4nc(-c5cnn(C)c5)c(C(F)(F)F)cc34)c2C1 [Example 20]
target.or.system: GST-CBP(1081-1197) bromodomain (Homo sapiens (Human), UniProt Q92793)
IC50 / nM: 18
--
compound: CC(=O)N1CCn2c(C3CCC3)nc(-c3ccc4c(c3)c(-c3cnn(C)c3)nn4C)c2C1 [Example 46]
target.or.system: GST-CBP(1081-1197) bromodomain (Homo sapiens (Human), UniProt Q92793)
IC50 / nM: 52
--
compound: CC(=O)N1CCn2c(C3CC3)nc(N3CCCc4cc(-c5cnn(Cc6ccccn6)c5)ccc43)c2C1 [Example 116]
target.or.system: GST-CBP(1081-1197) bromodomain (Homo sapiens (Human), UniProt Q92793)
IC50 / nM: 1280
--
compound: CNC(=O)N1CCn2c(C3CC3)nc(-c3cccc4nc(N5CCOCC5)c(C#N)cc34)c2C1 [Example 24]
target.or.system: GST-CBP(1081-1197) bromodomain (Homo sapiens (Human), UniProt Q92793)
IC50 / nM: 6
--
compound: CC(=O)N1CCn2c(C3CC3)nc(N3CCCc4cc(-c5ccnc(C(F)(F)F)c5)ccc43)c2C1 [Example 118]
target.or.system: GST-CBP(1081-1197) bromodomain (Homo sapiens (Human), UniProt Q92793)
IC50 / nM: 715
--
compound: CNC(=O)N1CCn2c(C3CCS(=O)(=O)CC3)nc(-c3ccc4c(c3)c(-c3cnn(C)c3)nn4C)c2C1 [Example 15]
target.or.system: GST-CBP(1081-1197) bromodomain (Homo sapiens (Human), UniProt Q92793)
IC50 / nM: 46
--
compound: CNC(=O)N1CCn2c(C3CC(F)(F)C3)nc(-c3c(F)ccc4cc(-c5cn(C)nc5C)ncc34)c2C1 [Example 77]
target.or.system: GST-CBP(1081-1197) bromodomain (Homo sapiens (Human), UniProt Q92793)
IC50 / nM: 45
--
compound: CNC(=O)N1CCn2c(C3CC(F)(F)C3)nc(-c3cccc4nc(-c5cnn(C)c5)c(C(F)F)cc34)c2C1 [Example 58]
target.or.system: GST-CBP(1081-1197) bromodomain (Homo sapiens (Human), UniProt Q92793)
IC50 / nM: 49
--
compound: CNC(=O)N1CCn2c(C3CC3)nc(-c3c(F)ccc4cc(-c5cn(C)nc5C)ncc34)c2C1 [Example 72]
target.or.system: GST-CBP(1081-1197) bromodomain (Homo sapiens (Human), UniProt Q92793)
IC50 / nM: 54
--
compound: CNC(=O)N1CCn2c(C3CC3)nc(-c3cccc4cc(C5CCOCC5)ncc34)c2C1 [Example 21]
target.or.system: GST-CBP(1081-1197) bromodomain (Homo sapiens (Human), UniProt Q92793)
IC50 / nM: 20
--
compound: CC(=O)N1CCn2c(C3CC3)nc(-c3ccc4c(c3)c(-c3c(C)noc3C)nn4C)c2C1 [Example 30]
target.or.system: GST-CBP(1081-1197) bromodomain (Homo sapiens (Human), UniProt Q92793)
IC50 / nM: 1180
